Recorded pIC50 for the following compounds
Tested on: KYSE-150 esophageal carcinoma cell line
Assay Explanation: In vitro cell-based assay: cellular proliferation via BrdU incorporation (ELISA)
Design: species or system human
Measurement Conditions: Homo sapiens, KYSE-150, 168 hours compound incubation
pIC50: −log10 of the molar value.

INSERT INTO results (compound, metric_name, data_value) VALUES
  ('CN(c1ccc(OC2CC2)cc1)c1ccc2c(c1)OCC[C@H]2CNc1cnccc1C(=O)O [Example 213]', 'pIC50', '≥ 7.00');

# context switch: different compound, same pIC50
Ask: Param readout= pIC50; system= KYSE-150 esophageal carcinoma cell line; entry= Cc1cccc(S(=O)(=O)c2ccc3c(c2)CCC[C@H]3CNc2cnccc2C(=O)O)c1 [Example 86] ; returns value.
Result: < 5.00
